# Target under test: recombinant human NF-kappaB-inducing kinase (NIK/MAP3K14) (Homo sapiens)
# Sequence (Q99558 whole entry): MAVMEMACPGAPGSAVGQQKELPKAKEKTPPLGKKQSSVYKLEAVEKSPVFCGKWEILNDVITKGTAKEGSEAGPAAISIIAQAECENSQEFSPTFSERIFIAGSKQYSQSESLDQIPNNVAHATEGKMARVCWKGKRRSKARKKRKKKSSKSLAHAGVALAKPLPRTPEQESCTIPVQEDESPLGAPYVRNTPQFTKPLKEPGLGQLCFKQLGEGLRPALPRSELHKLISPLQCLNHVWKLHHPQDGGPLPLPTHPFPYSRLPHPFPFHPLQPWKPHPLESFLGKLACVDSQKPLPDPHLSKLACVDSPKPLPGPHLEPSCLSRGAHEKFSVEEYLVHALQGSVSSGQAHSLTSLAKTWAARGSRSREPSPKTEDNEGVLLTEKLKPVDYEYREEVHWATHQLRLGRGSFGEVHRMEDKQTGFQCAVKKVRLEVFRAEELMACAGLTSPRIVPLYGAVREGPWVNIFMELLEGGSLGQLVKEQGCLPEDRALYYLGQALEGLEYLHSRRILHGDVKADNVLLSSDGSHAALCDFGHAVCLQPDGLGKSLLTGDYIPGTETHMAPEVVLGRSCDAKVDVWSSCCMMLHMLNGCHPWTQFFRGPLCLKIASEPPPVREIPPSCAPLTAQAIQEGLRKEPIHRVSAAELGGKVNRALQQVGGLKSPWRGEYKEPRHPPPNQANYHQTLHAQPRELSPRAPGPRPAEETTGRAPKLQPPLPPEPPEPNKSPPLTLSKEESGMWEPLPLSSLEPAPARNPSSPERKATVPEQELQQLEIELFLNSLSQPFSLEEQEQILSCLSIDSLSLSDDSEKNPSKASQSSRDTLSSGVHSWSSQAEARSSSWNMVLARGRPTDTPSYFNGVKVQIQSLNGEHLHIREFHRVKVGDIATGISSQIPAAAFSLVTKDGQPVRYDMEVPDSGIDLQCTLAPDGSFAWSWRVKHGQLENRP
# Test description: Biological Assay B: inhibition of auto-phosphorylation of recombinant human NIK/MAP3K14 (AlphaScreen), performed at 2 locations
# Type: biochemical
# Reported conditions: location 2; AlphaScreen auto-phosphorylation; averaged values; read-out: Assay B location 2 IC50
Reported endpoint: IC50 (nM)

Molecule: CC1(CO)CNc2ncc(-c3ccnc(Nc4cc(Cl)c(N5CCOCC5)cc4Cl)n3)cc21 (single isomer, unassigned) [Compound 266]
Target under test: recombinant human NF-kappaB-inducing kinase (NIK/MAP3K14) (Homo sapiens)
Reported endpoint: IC50
Recorded value: 1.9

P = COc1cc(C(=O)NC2CCN(C)CC2)ccc1Nc1nccc(-c2cnc3c(c2)C(C)(CO)CN3)n1 (stereo not shown) [Compound 130]
Q = CC1(C)CNc2ncc(-c3ccnc(Nc4ccc(C(=O)NC5CCOCC5)cc4OC(F)F)n3)cc21 [Compound 82]
R = COc1cc(N2CCN(C(C)C)CC2)c(Cl)cc1Nc1nccc(-c2cnc3c(c2)C(C)(CO)CN3)n1 (stereo not shown) [Compound 14]
Please order the records by their reported IC50, lowest number first. Could you list the labels in the order requested?
R, Q, P
